Test: Liposome size and zeta potential (dynamic/electrophoretic light scattering)
Format: physicochemical
Conditions: liposomes 80:10:10 DSPC:DOTAP:Chol containing the 5FU analogue
metricName: Size (nm)

NC(Cc1c[nH]c2ccccc12)C(=O)OC[C@H]1O[C@@H](n2cc(F)c(=O)[nH]c2=O)C(OC(=O)C(N)Cc2c[nH]c3ccccc23)C1OC(=O)C(N)Cc1c[nH]c2ccccc12 (some centres unmarked) ... 163.8
O=c1[nH]cc(F)c(=O)[nH]1 [5FU, 5-fluorouracil, reference compound] ... 173.5
NCC(=O)OCn1cc(F)c(=O)[nH]c1=O ... 161.8
O=c1[nH]c(=O)n([C@@H]2O[C@H](CO)[C@@H](O)[C@H]2O)cc1F [5FUR, 5-fluorouridine, reference compound] ... 177.4
N[C@@H](Cc1c[nH]c2ccccc12)C(=O)OCn1cc(F)c(=O)[nH]c1=O ... 167.4

* * *

Experiment: Liposome size and zeta potential (dynamic/electrophoretic light scattering)
Assay type: physicochemical
Details: liposomes 80:10:10 DSPC:DOTAP:Chol containing the 5FU analogue
metricName: Zeta Potential (mV)

Guide cases for Zeta Potential, answers given:
O=c1[nH]c(=O)n([C@@H]2O[C@H](CO)[C@@H](O)[C@H]2O)cc1F [5FUR, 5-fluorouridine, reference compound] ... 37.9
NC(Cc1c[nH]c2ccccc12)C(=O)OC[C@H]1O[C@@H](n2cc(F)c(=O)[nH]c2=O)C(OC(=O)C(N)Cc2c[nH]c3ccccc23)C1OC(=O)C(N)Cc1c[nH]c2ccccc12 (some centres unmarked) [5FURW] ... 32.2
O=c1[nH]cc(F)c(=O)[nH]1 [5FU, 5-fluorouracil, reference compound] ... 41.7

1. NCC(=O)OCn1cc(F)c(=O)[nH]c1=O [5FUG]
2. N[C@@H](Cc1c[nH]c2ccccc12)C(=O)OCn1cc(F)c(=O)[nH]c1=O [5FUW]
Pick the one with the larger Zeta Potential: 1 vs 2 Respond using the label that marks the chosen record.
1
(1: 41.2 mV, 2: 19.6 mV)

Origin of measurements: patent US11191774B2
